Test system: Serine/threonine-protein kinase B-raf (Homo sapiens), P15056 [V600E];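 also: mean inhibition of the BRAF V599E mutant, from GSK PKIS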
Sequence (P15056 whole entry V600E): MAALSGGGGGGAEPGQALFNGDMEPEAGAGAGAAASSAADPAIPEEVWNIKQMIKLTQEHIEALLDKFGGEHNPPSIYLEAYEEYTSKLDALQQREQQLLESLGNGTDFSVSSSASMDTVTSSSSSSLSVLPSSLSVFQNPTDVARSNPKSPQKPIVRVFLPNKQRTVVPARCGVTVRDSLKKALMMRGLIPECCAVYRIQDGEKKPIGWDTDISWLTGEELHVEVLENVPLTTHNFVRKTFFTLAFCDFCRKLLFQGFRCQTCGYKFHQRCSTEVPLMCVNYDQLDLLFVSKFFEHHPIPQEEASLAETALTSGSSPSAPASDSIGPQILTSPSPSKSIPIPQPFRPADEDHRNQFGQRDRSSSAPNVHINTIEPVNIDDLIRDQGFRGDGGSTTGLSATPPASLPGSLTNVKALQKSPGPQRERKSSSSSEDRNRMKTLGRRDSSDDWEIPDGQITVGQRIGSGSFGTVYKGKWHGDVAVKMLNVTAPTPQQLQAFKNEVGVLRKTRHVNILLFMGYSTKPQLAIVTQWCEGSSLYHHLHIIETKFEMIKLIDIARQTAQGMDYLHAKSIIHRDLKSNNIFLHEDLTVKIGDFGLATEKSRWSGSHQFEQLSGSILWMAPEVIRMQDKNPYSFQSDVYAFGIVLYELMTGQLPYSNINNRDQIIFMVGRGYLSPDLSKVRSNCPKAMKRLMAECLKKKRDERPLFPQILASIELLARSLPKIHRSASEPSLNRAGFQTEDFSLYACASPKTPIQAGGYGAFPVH
Settings: at 0.1 µM
Description: GSK_PKIS: BRAF (V599E mutant) mean inhibition at 0.1 uM [Nanosyn]
inhibition values by entry
readout: inhibition (%)

COC(=O)Nc1nc2cc(Oc3ccc(NC(=O)Nc4cccc(C(=O)O)c4)cc3)ccc2[nH]1 ... -0.53
CCn1c(-c2nonc2N)nc2c(C#CC(C)(C)O)nc(OC[C@@H](N)c3ccccc3)cc21 ... -0.86
O=C1NC(=O)C(c2ccccc2Cl)=C1Nc1cccc(O)c1 ... 3.01
c1cnn2ncc(-c3ccnc(Nc4ccc5c(c4)OCCO5)n3)c2c1 ... 8.24
CC1=C(C(=O)Nc2ccc3[nH]ncc3c2)C(c2ccc(F)cc2)NC(=O)N1 (stereo not given) ... 2.81
O=C1Nc2ccc(C(=O)c3ccco3)cc2C1=Cc1cc(Cl)c(O)c(Cl)c1 ... 12.5
CCCN1CCC(Oc2cc(Nc3nc(Nc4cccc(F)c4C(N)=O)c4cc[nH]c4n3)c(OC)cc2Cl)CC1 ... 1.35
CNC(=O)c1cncc(/C=C/c2c(Cl)cccc2Cl)c1 ... 3.03
NS(=O)(=O)c1ccc(N/N=C2\C(=O)Nc3ccc(C(=O)NCCc4c[nH]cn4)cc32)cc1 ... 6.04
Fc1cccc(COc2ccc(Nc3ncnc4sc(-c5cccs5)cc34)cc2Cl)c1 ... 1.62

Data provenance: ChEMBL document CHEMBL1961873
